Test: Cmax in Sprague-Dawley rat at 2 mg/kg, iv measured upto 10 hrs by LC-MS/MS analysis
Type: ADME, organism-based
Design: route intravenous, dose 2 mg/kg, time <=10
Details: in vivo
Overview of recorded Cmax for various compounds
Give the value in ng/mL but do not write ng/mL after it.

Item Cc1cc(/C=C/C#N)cc(C)c1Oc1nc(NC2CCN(c3ccc(NS(C)(=O)=O)cc3)CC2)nc2c1COC2 has what recorded Cmax? 756

Item Cc1cc(/C=C/C#N)cc(C)c1Oc1nc(NC2CCN(Cc3ccc(C(N)=O)cc3)CC2)nc2c1COC2 has what recorded Cmax? 480

----------
Test: AUC(0 to t) in Sprague-Dawley rat at 10 mg/kg, po measured upto 12 hrs by LC-MS/MS analysis
Assay type: ADME, organism-based
Parameters: route oral, dose 10 mg/kg, time <=12
Conditions: in vivo
VALUE TYPE: AUC(0-t) at 12 h (ng·h/mL)
Give the value in ng·h/mL but do not write ng·h/mL after it.

compound_structure=Cc1cc(/C=C/C#N)cc(C)c1Oc1nc(NC2CCN(Cc3ccc(C(N)=O)cc3)CC2)nc2c1COC2 experimental_value=801

Note: attention shifts to another entry.
Item Cc1cc(/C=C/C#N)cc(C)c1Oc1nc(NC2CCN(c3ccc(NS(C)(=O)=O)cc3)CC2)nc2c1COC2 has what recorded AUC(0-t) at 12 h? 727
